# measuredTarget: Amine oxidase [flavin-containing] B (Homo sapiens, UniProt P27338)
# Sequence (P27338 whole entry): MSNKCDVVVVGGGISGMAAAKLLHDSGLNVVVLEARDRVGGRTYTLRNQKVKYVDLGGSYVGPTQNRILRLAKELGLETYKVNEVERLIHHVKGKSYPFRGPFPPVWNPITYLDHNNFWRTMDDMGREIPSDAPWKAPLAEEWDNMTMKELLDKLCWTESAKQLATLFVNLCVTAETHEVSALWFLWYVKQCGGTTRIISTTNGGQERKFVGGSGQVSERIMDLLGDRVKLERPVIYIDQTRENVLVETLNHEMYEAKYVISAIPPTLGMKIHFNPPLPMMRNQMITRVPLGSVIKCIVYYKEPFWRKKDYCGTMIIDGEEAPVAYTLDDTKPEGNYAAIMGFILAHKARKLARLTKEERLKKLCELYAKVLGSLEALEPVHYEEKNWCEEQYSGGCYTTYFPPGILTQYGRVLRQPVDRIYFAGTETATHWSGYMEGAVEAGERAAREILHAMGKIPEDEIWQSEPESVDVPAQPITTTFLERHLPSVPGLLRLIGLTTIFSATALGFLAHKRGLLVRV
# experimentNotes: Inhibition of human recombinant MAOB
pIC50: −log10 of the molar value.
measurementName: pIC50

In the examples that follow, each entry is paired with its recorded pIC50.
{"columns": ["structureSmilesString", "pIC50"],
 "data": [
  ["CCCOC(=O)c1coc2ccccc2c1=O", 5.25],
  ["CCOC(=O)c1cc(=O)c2cc(Cl)ccc2o1", 4.41],
  ["CCCOC(=O)c1cc(=O)c2ccccc2o1", 4.45]
]}

a = O=c1c(CO)coc2ccccc12
b = CCOC(=O)c1coc2ccccc2c1=O
Task item: Could you determine which record has the numerically smaller pIC50? Candidates: a and b Lab log: write the label of the selected item as the result.
Reply: a

* * *

# Species: Homo sapiens
# experimentNotes: Selectivity index, difference in pIC50 for human recombinant MAOB and pIC50 for human recombinant MAOA
measurementName: pSI

Task item: Given the molecule "CCOC(=O)c1cc(=O)c2cc(Cl)ccc2o1" , what is its reported pSI?
Reply: > 0.41

Task item: Given the molecule "CCCOC(=O)c1cc(=O)c2ccccc2o1" , what is its reported pSI?
Reply: > 0.45

Task item: Given the molecule "O=C(Nc1ccc(O)c(O)c1)c1cc(=O)c2ccccc2o1" , what is its reported pSI?
Reply: -1.15

Task item: Given the molecule "CCOC(=O)c1cc(=O)c2ccccc2o1" , what is its reported pSI?
Reply: 0

Task item: Given the molecule "CN(C(=O)c1cc(=O)c2ccccc2o1)c1ccccc1" , what is its reported pSI?
Reply: 0

Task item: Given the molecule "CCCOC(=O)c1coc2ccccc2c1=O" , what is its reported pSI?
Reply: > 1.25

Task item: Given the molecule "CCOC(=O)c1coc2ccccc2c1=O" , what is its reported pSI?
Reply: > 1.72

* * *

# measuredTarget: Amine oxidase [flavin-containing] B (Homo sapiens)
# experimentNotes: Inhibition of human recombinant MAOB
// IC50 lookup, one value per entry

{"columns": ["structureSmilesString", "IC50"],
 "data": [
  ["CCOC(=O)c1cc(=O)c2ccccc2o1", "> 100 µM"],
  ["O=C(O)c1coc2ccc(Cl)cc2c1=O", "> 1000 µM"],
  ["O=C(O)c1cc(=O)c2cc(Cl)ccc2o1", "> 1000 µM"],
  ["O=c1cc(CO)oc2ccccc12", "> 100 µM"]
]}

Proceed to the following item.
Task item: Given the molecule "CN(C(=O)c1cc(=O)c2ccccc2o1)c1ccccc1" , what is its reported IC50?
Reply: > 100 µM

* * *

# Species: Homo sapiens
# experimentNotes: Selectivity index, difference in pIC50 for human recombinant MAOB and pIC50 for human recombinant MAOA
measurementName: pSI

In the examples that follow, each entry is paired with its recorded pSI.
{"columns": ["structureSmilesString", "pSI"],
 "data": [
  ["O=c1c(CO)coc2ccccc12", "> 0.42"],
  ["O=C(O)c1cc(=O)c2cc(Cl)ccc2o1", "< -1"],
  ["O=c1cc(CO)oc2ccccc12", 0]
]}

Proceed to the following item.
Task item: Given the compound "O=C(O)c1coc2ccc(Cl)cc2c1=O" , what is its reported pSI?
Reply: < -1
